TARGET OR SYSTEM: PI3K-α (PIK3CA) H1047R mutant, p110α/p85α complex (Homo sapiens, UniProt P42336, H1047R)
Construct: Recombinant, catalytically active human full length PIK3KA Wild-type and H1047R mutant; 6×His (N); purchased EMD Millipore Sigma 14-792M
Sequence (P42336 whole entry H1047R): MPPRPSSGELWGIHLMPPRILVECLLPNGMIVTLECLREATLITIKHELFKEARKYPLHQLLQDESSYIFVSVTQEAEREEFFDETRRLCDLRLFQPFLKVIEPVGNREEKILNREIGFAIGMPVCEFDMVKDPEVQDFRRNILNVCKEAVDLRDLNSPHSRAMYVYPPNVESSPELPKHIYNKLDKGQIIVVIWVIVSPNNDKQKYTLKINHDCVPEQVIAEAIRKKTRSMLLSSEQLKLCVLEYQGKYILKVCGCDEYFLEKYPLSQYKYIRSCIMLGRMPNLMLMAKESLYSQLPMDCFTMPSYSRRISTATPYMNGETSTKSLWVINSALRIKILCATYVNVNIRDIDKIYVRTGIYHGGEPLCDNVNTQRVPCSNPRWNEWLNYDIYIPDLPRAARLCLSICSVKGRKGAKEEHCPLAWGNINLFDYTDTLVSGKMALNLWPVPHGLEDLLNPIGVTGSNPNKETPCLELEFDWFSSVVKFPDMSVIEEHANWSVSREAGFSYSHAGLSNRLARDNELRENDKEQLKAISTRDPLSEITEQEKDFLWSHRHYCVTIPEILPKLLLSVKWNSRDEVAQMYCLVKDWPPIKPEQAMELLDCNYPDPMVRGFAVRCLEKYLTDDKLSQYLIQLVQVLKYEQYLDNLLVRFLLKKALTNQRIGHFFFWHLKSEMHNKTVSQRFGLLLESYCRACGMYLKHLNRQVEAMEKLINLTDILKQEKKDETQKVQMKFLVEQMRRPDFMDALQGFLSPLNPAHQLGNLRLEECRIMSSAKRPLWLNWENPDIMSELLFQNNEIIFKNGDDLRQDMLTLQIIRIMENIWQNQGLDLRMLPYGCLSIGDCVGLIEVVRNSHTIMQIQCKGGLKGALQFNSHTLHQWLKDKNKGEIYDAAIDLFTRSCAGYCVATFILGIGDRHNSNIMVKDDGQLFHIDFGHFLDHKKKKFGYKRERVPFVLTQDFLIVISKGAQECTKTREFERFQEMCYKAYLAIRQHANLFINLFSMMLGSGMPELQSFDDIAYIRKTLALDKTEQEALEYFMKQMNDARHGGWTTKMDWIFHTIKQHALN
Sequence (P27986 whole entry partner): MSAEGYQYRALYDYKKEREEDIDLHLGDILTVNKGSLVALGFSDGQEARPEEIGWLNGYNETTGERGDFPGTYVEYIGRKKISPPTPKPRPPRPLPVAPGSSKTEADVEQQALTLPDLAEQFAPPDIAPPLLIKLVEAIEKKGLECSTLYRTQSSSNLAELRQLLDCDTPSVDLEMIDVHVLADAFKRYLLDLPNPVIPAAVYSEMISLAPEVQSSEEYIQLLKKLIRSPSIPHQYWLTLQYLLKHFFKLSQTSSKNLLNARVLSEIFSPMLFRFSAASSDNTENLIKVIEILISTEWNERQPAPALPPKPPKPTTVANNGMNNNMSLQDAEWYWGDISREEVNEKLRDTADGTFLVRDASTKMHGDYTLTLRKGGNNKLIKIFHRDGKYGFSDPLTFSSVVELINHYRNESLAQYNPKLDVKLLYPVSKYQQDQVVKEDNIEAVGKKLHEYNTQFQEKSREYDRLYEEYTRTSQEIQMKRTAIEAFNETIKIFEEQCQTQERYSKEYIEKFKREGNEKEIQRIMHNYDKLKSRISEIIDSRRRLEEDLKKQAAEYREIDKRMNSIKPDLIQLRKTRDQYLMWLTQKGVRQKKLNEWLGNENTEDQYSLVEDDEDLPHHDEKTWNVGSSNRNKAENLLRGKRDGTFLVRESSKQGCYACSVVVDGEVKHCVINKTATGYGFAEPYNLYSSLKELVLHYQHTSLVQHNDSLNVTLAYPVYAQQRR
EXPERIMENT NOTES: PI3K-alpha kinase (PIK3CA) biochemical activity, ADP-Glo, H1047R mutant
TEST CONDITIONS: Soy PI lipid substrate
VALUE TYPE: IC50

# example entries with known answers
{"columns": ["MOLECULE", "IC50"],
 "data": [
  ["Cc1cc(C(C)Nc2ccc(Cl)nc2C(=O)O)c2oc(-c3nn(C)c4ccccc34)c(C)c(=O)c2c1 (single isomer, unassigned) [Example 170]", "< 500 nM"],
  ["Cc1cc(C(C)Nc2ccccc2C(=O)O)c2oc(-c3ccc4nn(C)cc4c3)cc(=O)c2c1 (centres unmarked) [Example 13]", "< 500 nM"],
  ["Cc1cc(C(C)Nc2ccccc2C(=O)O)c2oc(-c3ccc4cc(C)[nH]c4n3)cc(=O)c2c1 (single isomer, unassigned) [Example 20]", "< 500 nM"],
  ["Cc1cc(C(C)Nc2ccccc2C(=O)O)c2oc(-c3ccc4cc[nH]c4c3)cc(=O)c2c1 (single isomer, unassigned) [Example 21]", "< 500 nM"],
  ["Cc1cc(C(C)Nc2ccccc2C(=O)O)c2oc(-c3cccc4ocnc34)cc(=O)c2c1 (single isomer, unassigned) [Example 110]", "< 500 nM"],
  ["Cc1cc(C(C)Nc2ccccc2C(=O)O)c2oc(-c3ccc4nnc(C(C)C)n4c3)cc(=O)c2c1 (single isomer, unassigned) [Example 78]", "1000 to 5000 nM"],
  ["COc1ccc2nc(-c3cc(=O)c4cc(C)cc([C@@H](C)Nc5ccccc5C(=O)O)c4o3)ccc2n1 [Example 255]", "500 to 1000 nM"],
  ["Cc1cc(C(C)Nc2ccccc2C(=O)O)c2oc(-c3ccc4ncccc4n3)cc(=O)c2c1 (single isomer, unassigned) [Example 252]", "500 to 1000 nM"]
]}

Consider Cc1cc(C(C)Nc2ccccc2C(=O)O)c2oc(-c3ccc4nc(C#N)ccc4c3)cc(=O)c2c1 (single isomer, unassigned) [Example 207] . Its measured IC50 is < 500 nM

Consider Cc1cc([C@@H](C)Nc2cccc(F)c2C(=O)O)c2oc(-c3nn(C)c4ccccc34)c(C)c(=O)c2c1 [Example 230] . Its measured IC50 is < 500 nM

Consider Cc1cc([C@@H](C)Nc2ccccc2C(=O)O)c2oc(-c3ccc4c(cnn4Cc4ccccc4)c3)c(C)c(=O)c2c1 [Example 211] . Its measured IC50 is < 500 nM

Consider Cc1cc(C(C)Nc2ccccc2C(=O)O)c2oc(-c3ccc4[nH]c(C)nc4c3)cc(=O)c2c1 (single isomer, unassigned) [Example 65] . Its measured IC50 is < 500 nM

Consider Cc1cc([C@@H](C)Nc2ccccc2C(=O)O)c2oc(-c3cc4cnccc4s3)c(C)c(=O)c2c1 [Example 203] . Its measured IC50 is < 500 nM

Consider Cc1cn2nc(-c3cc(=O)c4cc(C(F)(F)F)cc(C(C)Nc5ccc(Cl)nc5C(=O)O)c4o3)ccc2n1 (single isomer, unassigned) [Example 102] . Its measured IC50 is < 500 nM

---

TARGET OR SYSTEM: PI3K-α (PIK3CA) wild-type (WT), p110α/p85α complex (Homo sapiens, UniProt P42336)
Construct: Recombinant, catalytically active human full length PIK3KA Wild-type and H1047R mutant; 6×His (N); purchased EMD Millipore Sigma 14-602M
EXPERIMENT NOTES: PI3K-alpha kinase (PIK3CA) biochemical activity, ADP-Glo, wild-type
TEST CONDITIONS: Soy PI lipid substrate
VALUE TYPE: IC50

# example entries with known answers
{"columns": ["MOLECULE", "EXPERIMENTAL VALUE"],
 "data": [
  ["Cc1cc(C(C)Nc2ccccc2C(=O)O)c2oc(-n3ncc4ncccc43)cc(=O)c2c1 (single isomer, unassigned) [Example 48]", "< 0.5 µM"],
  ["Cc1cc(C(C)Nc2ccccc2C(=O)O)c2oc(-n3cnc4ccccc43)cc(=O)c2c1 (single isomer, unassigned) [Example 84]", "5 to 10 µM"],
  ["Cc1cc(C(C)Nc2ccccc2C(=O)O)c2oc(-c3ccc4nc(C)cn4c3)cc(=O)c2c1 (stereo not shown) [Example 16]", "1 to 5 µM"],
  ["Cc1cc(C(C)Nc2ccccc2C(=O)O)c2oc(-c3ccc4ccnn4c3)c(C)c(=O)c2c1 (single isomer, unassigned) [Example 157]", "1 to 5 µM"],
  ["Cc1cc([C@@H](C)Nc2ccc(C(F)(F)F)nc2C(=O)O)c2oc(-c3ccc4nn(C)cc4c3)c(C)c(=O)c2c1 [Example 236]", "0.5 to 1 µM"]
]}

The observed IC50 for CC(Nc1ccc(Cl)nc1C(=O)O)c1cc(C(F)(F)F)cc2c(=O)cc(-c3ccc4cnn(C)c4c3)oc12 (single isomer, unassigned) [Example 108] when tested with PI3K-α (PIK3CA) wild-type (WT), p110α/p85α complex (Homo sapiens, UniProt P42336) stands at 0.5 to 1 µM

The observed IC50 for Cc1cc(C(C)Nc2ccc(Cl)nc2C(=O)O)c2oc(-c3ccc4c(c3)c(C)nn4C)cc(=O)c2c1 (single isomer, unassigned) [Example 224] when tested with PI3K-α (PIK3CA) wild-type (WT), p110α/p85α complex (Homo sapiens, UniProt P42336) stands at < 0.5 µM

---

TARGET OR SYSTEM: PI3K-α (PIK3CA) wild-type (WT), p110α/p85α complex (Homo sapiens)
Construct: Recombinant, catalytically active human full length PIK3KA Wild-type and H1047R mutant; 6×His (N); purchased EMD Millipore Sigma 14-602M
EXPERIMENT NOTES: PI3K-alpha kinase (PIK3CA) biochemical activity, ADP-Glo, wild-type
TEST CONDITIONS: Soy PI lipid substrate
// reported IC50 for each item listed

# example entries with known answers
{"columns": ["COMPOUND", "IC50"],
 "data": [
  ["Cc1cc(C(C)Nc2ccccc2C(=O)O)c2oc(-c3cnn4ccccc34)cc(=O)c2c1 (stereo not drawn) [Example 10]", "1 to 5 µM"],
  ["Cc1cc(C(C)Nc2ccccc2C(=O)O)c2oc(-c3cn(C)c4ccccc34)c(C)c(=O)c2c1 (single isomer, unassigned)", "1 to 5 µM"],
  ["Cc1cc(C(C)Nc2ccccc2C(=O)O)c2oc(-c3ccc4c(cnn4C)c3)c(C)c(=O)c2c1 (single isomer, unassigned)", "< 0.5 µM"],
  ["Cc1cc([C@@H](C)Nc2cccnc2C(=O)O)c2oc(-c3ccc4nn(C)cc4c3)cc(=O)c2c1", "1 to 5 µM"],
  ["Cc1cc(C(C)Nc2ccc(C)nc2C(=O)O)c2oc(-c3ccc4nn(C)cc4c3)cc(=O)c2c1 (single isomer, unassigned)", "1 to 5 µM"],
  ["Cc1cc(C(C)Nc2ccc(Cl)nc2C(=O)O)c2oc(-c3ccc4nc(C)cn4c3)c(C)c(=O)c2c1 (single isomer, unassigned)", "0.5 to 1 µM"],
  ["Cc1cc(C(C)Nc2ccccc2C(=O)O)c2oc(-c3c4ccccc4nn3C)cc(=O)c2c1 (single isomer, unassigned)", "1 to 5 µM"],
  ["Cc1cc([C@@H](C)Nc2ccccc2C(=O)O)c2oc(-c3cc(C(F)(F)F)c4nn(C)cc4c3)cc(=O)c2c1", "< 0.5 µM"]
]}

The observed IC50 for Cc1cc(C(C)Nc2ccccc2C(=O)O)c2oc(-c3ccc4nc(C)cn4c3)cc(=O)c2c1 (single isomer, unassigned) [Example 17] when tested with PI3K-α (PIK3CA) wild-type (WT), p110α/p85α complex (Homo sapiens) stands at 1 to 5 µM

The observed IC50 for `Cc1cc([C@@H](C)Nc2ccccc2C(=O)O)c2oc(-c3cc4cnccc4s3)c(C)c(=O)c2c1` when tested with PI3K-α (PIK3CA) wild-type (WT), p110α/p85α complex (Homo sapiens) stands at < 0.5 µM

The observed IC50 for Cc1cc(C(C)Nc2ccccc2C(=O)O)c2oc(-c3ccc4c(c3)CN(C)C4=O)cc(=O)c2c1 (stereo not drawn) [Example 30] when tested with PI3K-α (PIK3CA) wild-type (WT), p110α/p85α complex (Homo sapiens) stands at 1 to 5 µM

The observed IC50 for CC(Nc1ccc(Cl)nc1C(=O)O)c1cc(C(F)(F)F)cc2c(=O)cc(-c3cc(Cl)c4nn(C)cc4c3)oc12 (single isomer, unassigned) [Example 194] when tested with PI3K-α (PIK3CA) wild-type (WT), p110α/p85α complex (Homo sapiens) stands at 0.5 to 1 µM

The observed IC50 for Cc1cc(C(C)Nc2ccccc2C(=O)O)c2oc(-c3cccc4oc(C)nc34)cc(=O)c2c1 (single isomer, unassigned) when tested with PI3K-α (PIK3CA) wild-type (WT), p110α/p85α complex (Homo sapiens) stands at 1 to 5 µM

The observed IC50 for Cc1cc(C(C)Nc2ccccc2C(=O)O)c2oc(-c3ccc4c(c3)CN(C)C4=O)cc(=O)c2c1 (single isomer, unassigned) [Example 31] when tested with PI3K-α (PIK3CA) wild-type (WT), p110α/p85α complex (Homo sapiens) stands at 1 to 5 µM

The observed IC50 for Cc1cc(C(C)Nc2ccccc2C(=O)O)c2oc(-c3ccc4cncn4c3)cc(=O)c2c1 (single isomer, unassigned) when tested with PI3K-α (PIK3CA) wild-type (WT), p110α/p85α complex (Homo sapiens) stands at 1 to 5 µM
